- SYSTEM UNDER TEST: receptor binding domain (RBD) of the S1-subunit of SARS-CoV-2 glycoprotein S (UniProt P0DTC2 319-541)
- EXPERIMENTAL DETAILS: flow
VALUE TYPE: log10(IC50) (log10 of the value in nM)
For clarity, the numbers are log10 values of IC50 expressed in nM.

Illustrative cases are given below, each with its answer.
BINDER | VALUE TYPE | OBSERVED MEASUREMENT
STE73-9G3 (antibody, V domains shown) VH: QVQLQESGGGLVQPGGSLRLSCAASGFTFSSYAMSWVRQAPGKGLEWVSAISGSGGSTYYADSVKGRFTISRDNSKNTLYLQMNSLRAEDTAVYYCARDLVLGSGSSNDWGRGTLVTVSS VL: QPVLTQPPSVSGAPGQSVTISCTGTDSNIGAGYNVHWYQQLPGAAPKLIISYTDNRPSGVPDRFSGSKSGTSASLAITGLQAEDEADYYCQSSDRTLVGSLFGTGTKVTVL | log10(IC50) | 0.53
STE73-6C1 (antibody, V domains shown) VH: QVQLVQSGGGVVQPGRSLRLSCAASGFTFSSYAMHWVRQAPGKGLEWVAVISYDGSNKYYADSVKGRFTISRDNSKNTLYLQMNSLRAEDTAVYYCARSYVGGMDVWGQGTTVTVSS VL: QLVLTQSPSVSGAPGQSVTISCTGTDSNIGAGYNVHWYQQLPGAAPKLIISYTDNRPSGVPDRFSGSKSGTSASLAITGLQAEDEADYYCQSSDRTLVGSLFGTGTKVTVL | log10(IC50) | 0.61
STE73-6B10 (antibody, V domains shown) VH: QVQLVQSGAEVKKPGASVKVSCKASGYTFTSYGISWVRQAPGQGLEWMGWINPNSGGTNYAQKFQGRVTMTRDTSISTAYMELSRLRSDDTAVYYCARDRLRYGDSGSYYYYGMDVWGQGTTVTVSS VL: QSALTQPRSVSGSPGQSVTISCTGTSSDVGGYNYVSWYQQHPGKAPKLLISEVTRRPSGVPDRFSGSKSGNTASLTVSGLQTEDEADYYCGSYAGSNTWVFGGGTKLTVL | log10(IC50) | 1.86
STE73-2E9 (antibody, V domains shown) VH: QVQLVQSGAEVKKPGASVKVSCKASGYTFTSYGISWVRQAPGQGLEWMGWISAYNGNTNYAQKLQGRVTMTTDTSTSTAYMELRSLRSDDTAVYYCARGKFDYWGQGTLVTVSS VL: QSVLTQPPSVSEAPSQRVTISCSGSSSNIGNNAVNWYQQLPGKAPKLLIYYDDVLPSGVSDRFSGSKSGTSASLAISGLQSGDEADYYCAAWDDSLSGVVFGGGTKLTVL | log10(IC50) | 0.53
STE73-2C2 (antibody, V domains shown) VH: QVQLVESGGGLVQPGGSLRLSCAASGITVSSNYMSWVRQAPGKGLEWVSVIYSGGSTFYADSVKGRFTISRDNSKNTLYLQMNSLRAEDTGVYYCARGHDNLDYWGQGTLVTVSS VL: LPVLTQPHSVSESPGKTVIISCTGSSDSIASNYVQWYQQRPGSAPTTVIYEDNKRPSGVPDRFSGSTDSSSNSASLTISGLKTEDEAEYYCQSYDSNNHWVFGGGTKLTVL | log10(IC50) | 0.48

Lookup: Supply reported log10(IC50) belonging to this binder: STE73-2G8 (antibody, V domains shown) VH: QVQLVQSGGGLVKPGGSLRLSCAASGITVSSNYMSWVRQAPGKGLEWVSILYSGGTTFYTDSVKGRFTISRDNSKNTLHLQMNSLRAEDTAVYYCARWSGTYYDYWGQGTLVTVSS VL: SSELTQDPAVSVALGQTVRITCQGDSLRSYYASWYQQKPGQAPVLVIYGKNNRPSGIPDRFSGSSSGNTASLTITGAQAEDEADYYCNSRDSTNDPVLFGAGTKLTVL
Found: 0.45

Lookup: Supply reported log10(IC50) belonging to this binder: STE73-2B2 (antibody, V domains shown) VH: QVQLVQSGAEVKKPGASVKVSCKASGYTFTGYYMHWVRQAPGQGLEWMGWINPNSGGTNYAQKFQGRVTITRDTSASTAYMELSSLRSEDTAVYYCARVSGWYFGAFDIWGQGTMVTVSS VL: LPVLTQPHSLSESPGKTVNISCTGSSGSIASNYVQWYQQRPGSAPTTVIYEDSHRPSGVPDRFSGSIDSSSNSASLSISGLKTEDEADYYCQSYDSSNNQWVFGGGTKLTVL
Found: 0.23
